Experiment: in vitro
Settings: chlorocebus sabaeus, Vero cells
Overview of recorded log10(CC50 at 72 h) for various compounds
// do not treat as linear: log10 of CC50 at 72 h, unit µM

These solved cases illustrate the format of a correct answer.
Compound	log10(CC50 at 72 h)
CCC(C)C(=O)O[C@@]12[C@H](OC(C)=O)[C@@H](C)[C@@]3(O)[C@@H](C=C(CO)C[C@]4(O)C(=O)C(C)=C[C@@H]34)[C@@H]1C2(C)C (stereo partly specified)	2.13
CCN(CC)CCCC(C)Nc1ccnc2cc(Cl)ccc12 (stereo unspecified)	1.95
CC/C=C/C=C/C=C\C(=O)O[C@@H]1[C@@H](C)[C@]2(O)[C@@H]3C=C(C)C(=O)[C@@H]3CC(CO)=C[C@H]2[C@@H]2C(C)(C)[C@]12OC(=O)CCC	0.85

Complete the entry with log10(CC50 at 72 h) for CCC(C)C(=O)O[C@@]12[C@H](OC(C)=O)[C@@H](C)[C@]3(O)[C@@H]4C=C(C)C(=O)[C@@H]4CC(CO)=C[C@H]3[C@@H]1C2(C)C (stereo partly specified) 2.02

Complete the entry with log10(CC50 at 72 h) for `CCCCCCCCC(=O)/C=C/C=C/C=C/C(=O)O[C@@]12C[C@@H](C)[C@@]3(O)[C@@H](C=C(CO)C[C@]4(O)C(=O)C(C)=C[C@@H]34)[C@@H]1C2(C)C` 1.11

Hello, the source for this data is ChEMBL document CHEMBL3580645, in case you need it.
